system: HCT-116 colon; test: NCI tumour cell line growth inhibition, 48 h
property.name: TGI

Answered cases to consult:
[
  {
    "molecule": "CC(C)(C)NNc1c([N+](=O)[O-])cnn(-c2ccccc2)c1=O",
    "experimental.value": "5.63 µM"
  },
  {
    "molecule": "O=[N+]([O-])c1ccccc1S(=O)(=O)N1CCCc2cc(Cl)ccc21",
    "experimental.value": "> 100 µM"
  },
  {
    "molecule": "Cc1c(Cl)cccc1NC(=O)C(=O)C1C(=O)NC(=O)NC1=O",
    "experimental.value": "> 100 µM"
  },
  {
    "molecule": "O=C1NC(=NCCc2ccccc2Cl)S/C1=C\\c1ccc2ncccc2c1",
    "experimental.value": "> 25 µM"
  },
  {
    "molecule": "Cn1c(=O)c(F)c(Nc2ccc(I)cc2F)c2c(=O)n(C[C@@H](O)CO)cnc21",
    "experimental.value": "11.5 µM"
  },
  {
    "molecule": "CCOC(=O)c1ccc(N=C/C=C(\\Nc2ccc(C(=O)OCC)cc2)c2ccc3ccccc3c2)cc1",
    "experimental.value": "> 100 µM"
  }
]

Batch request: TGI per item, same order as input.
1. Cc1cc2nc3c(C#N)c(-c4ccccc4)/c(=C\Nc4cccc(C(F)(F)F)c4)c(=O)n3c2cc1C
2. O=C(CC1C(=O)Nc2ccccc2S1=O)Nc1cccc(Cl)c1 (stereo not given)
3. CCOC(=O)C1(C(=O)OCC)C[C@H]2CON=C2[C@@H]1c1ccc(C(F)(F)F)cc1

> 100 µM
> 67.3 µM
> 100 µM

Can you look up the measured TGI of `COc1cc(/C=C/C(=O)c2ccc(Nc3nc(Nc4ccc(F)cc4)nc(Nc4ccc(F)cc4)n3)cc2)cc(OC)c1OC` for me?
> 100 µM
